Tested on: NCI/ADR-RES ovarian
test protocol: NCI-60 one-dose screen, 48 h (100 = growth as untreated, 0 = no growth, -100 = all killed)
measurement parameters: 10 µM unless noted
The panel holds about 83,000 compounds, 20% with a hit somewhere; the sample as a whole holds those more often.
Binary label based on growth with cut-off 90%: below gives Fulfilled, not below gives Not fulfilled.

Lookup: I wonder whether "N#CC1(c2ccccc2)CCN(Cc2ccccc2)CC1" has growth below 90%. Can you tell?
Found: Not fulfilled

Lookup: I wonder whether "CC(=O)O[C@H](C[C@H](C(C)C)N(C)C(=O)[C@@H](NC(=O)[C@H]1CCCN1C)C(C)C)c1nc(C(=O)N[C@@H](Cc2ccccc2)C[C@H](C)C(=O)O)c(C)s1" has growth below 90%. Can you tell?
Found: Fulfilled

Lookup: I wonder whether "C=CCCCN=C=S" has growth below 90%. Can you tell?
Found: Fulfilled

Lookup: I wonder whether "C[Se]C(=O)c1ccccc1OC(C)=O" has growth below 90%. Can you tell?
Found: Fulfilled

Lookup: I wonder whether "C[N+](C)(C)Cc1cc(Cl)ccc1O" has growth below 90%. Can you tell?
Found: Not fulfilled

Lookup: I wonder whether "COC(=O)[C@@H](C)C[C@H](Cc1ccccc1)NC(=O)c1csc(CC[C@H](C(C)C)N(C)C(=O)[C@@H](NC(=O)[C@H]2CCCCN2C)C(C)C)n1" has growth below 90%. Can you tell?
Found: Fulfilled

Lookup: I wonder whether CCCC(C)C1(CC)C(=O)NC(=O)N(C)C1=O (stereo unspecified) has growth below 90%. Can you tell?
Found: Not fulfilled

Lookup: I wonder whether "CCCC[C@H](NC(=O)[C@H]1CCCN1C)C(=O)N(C)[C@H](C[C@@H](OC(C)=O)c1nc(C(=O)N[C@@H](Cc2ccccc2)C[C@H](C)C(=O)OCC)cs1)C(C)C" has growth below 90%. Can you tell?
Found: Fulfilled

Lookup: I wonder whether "CC[C@H](C)[C@H](NC(=O)[C@H]1CCCCN1C)C(=O)N(C)[C@H](C[C@@H](O)c1nc(C(=O)N[C@@H](Cc2ccccc2)C[C@H](C)C(=O)O)cs1)C(C)C" has growth below 90%. Can you tell?
Found: Not fulfilled

Lookup: I wonder whether "COc1cccc2c1c(C(=O)C(=O)Nc1ccn[nH]1)cn2Cc1ccc(F)cc1" has growth below 90%. Can you tell?
Found: Not fulfilled
